# Experiment notes: Selectivity for thrombin over trypsin
Items are presented alongside their recorded Selectivity ratio.
// no unit string in output, number only

Record excerpt, results attached:
{"Molecule": "CN1C(=O)C(OCc2ccc(C(=N)N)cc2)Oc2cc(C(=O)Nc3ccccc3)ccc21 (centres undefined)", "Selectivity ratio": 0.7}
{"Molecule": "CCOC(=O)CCC(=O)N(Cc1ccccn1)c1ccc2c(c1)OC(C)(COc1ccc(C(=N)N)cc1)CN2C (centres undefined)", "Selectivity ratio": 56}
{"Molecule": "CN1CC(C)(COc2ccc(C(=N)N)cc2)Oc2cc(NC(=O)CCC(=O)O)ccc21 (centres undefined)", "Selectivity ratio": 0.3}
{"Molecule": "CCOC(=O)CCC(=O)Nc1ccc2c(c1)OC(C)(COc1ccc(C(=N)N)cc1)CN2C (centres undefined)", "Selectivity ratio": 0.4}
{"Molecule": "CCOC(=O)CN(Cc1ccccc1)c1ccc2c(c1)OC(C)(COc1ccc(C(=N)N)cc1)CN2C (centres undefined)", "Selectivity ratio": 4.5}

*Q* I'd like to know its Selectivity ratio. The molecule in question is CCOC(=O)CN(C(=O)c1ccc2c(c1)OC(OCc1ccc(C(=N)N)cc1)C(=O)N2C)c1ccccc1 (centres undefined)
*A* 4.6

*Q* I'd like to know its Selectivity ratio. The molecule in question is CCOC(=O)CN(C(=O)c1ccccc1)c1ccc2c(c1)OC(C)(COc1ccc(C(=N)N)cc1)CN2C (centres undefined)
*A* 12

*Q* I'd like to know its Selectivity ratio. The molecule in question is CCOC(=O)CCC(=O)N(Cc1ccccc1)c1ccc2c(c1)OC(C)(COc1ccc(C(=N)N)cc1)CN2C (centres undefined)
*A* 19

*Q* I'd like to know its Selectivity ratio. The molecule in question is CN1C(=O)C(OCc2ccc(C(=N)N)cc2)Oc2cc(C(=O)NCCC(=O)O)ccc21 (centres undefined)
*A* 0.2
